The origin of these recorded values is patent EP0517412A1.

assay.procedure: solubility in water
Format: physicochemical
measured.attribute: solubility

solubility reading for Cc1cccc(NC(=O)NC2N=C(c3ccccc3)c3ccccc3N(C)C2=O)c1 (stereo not shown) [(A)] : < 2 µg/mL
